# key: entry, value: target mRNA inhibition
Target: APOL1
Conditions: ASO, A431, 2 µM
After the bases stand the sugars from the 5' end (letter, count) and the backbone: PS all phosphorothioate, else s phosphorothioate and o phosphodiester by linkage. Methylation of C is not given here. e = 2'-O-(2-methoxyethyl) (MOE); k = constrained ethyl (cEt); d = 2'-deoxy (DNA)
Expressed in %, but write only the number.

The cases that follow already have their target mRNA inhibition on record.
* TTTTGTAAGTGCAACC (sugars kkkddddkekeddddd, PS) | 98
* GAAGCTTTAAACTCAG (sugars kkddddekekeddddd, PS) | 62
* TTTATACCAGTGTCTT (sugars kkddddkekekkdddd, PS) | 51
* TCAGATGGGTACTTCT (sugars kkddddkekekddddd, PS) | 82
* TTTATACCAGTGTCTT (sugars kkddddkdkdkddddd, PS) | 81
* TTTATACCAGTGTCTT (sugars kkddddkekekddddd, PS) | 89

Continue with the next sequence.
Enquiry: Can you share its target mRNA inhibition? I mean this sequence: TGAGTATTGTTTTTGT (sugars k3 d4 k3 e1 d5, PS)
Return: 95

---

Biological target: ANGPTL2
Settings: ASO, 5 µM
After the bases stand the sugars from the 5' end (letter, count) and the backbone: PS all phosphorothioate, else s phosphorothioate and o phosphodiester by linkage. Methylation of C is not given here. l = locked nucleic acid (LNA); d = 2'-deoxy (DNA)
If the reported target mRNA inhibition equals or exceeds 40%, assign yes. If not, assign no.

Consider the following illustrative entries.
- TAATTCACCGCCAAATTAC (sugars l3 d13 l3, PS): no
- TAATGGCTGAGATGCAG (sugars l4 d11 l2, PS): no
- CAGGTCCTTGTACTTGC (sugars l2 d13 l2, PS): yes

Enquiry: // inclusive: target mRNA inhibition at least 40%? input: CTGGTTGATGATGCGGTT (sugars l1 d15 l2, PS)
Return: yes

Enquiry: And what about the sequence CAGCCAGTAAATGTTCTCCA (sugars l1 d17 l2, PS) ?
Return: yes

Enquiry: And what about the sequence CAGGCCAACACTAACTC (sugars l1 d12 l4, PS) ?
Return: yes

Enquiry: And what about the sequence ACCCTCCATCCTTCACC (sugars l4 d11 l2, PS) ?
Return: no

Enquiry: And what about the sequence GTTCGTCAGCCAGTAA (sugars l2 d11 l3, PS) ?
Return: yes

Enquiry: And what about the sequence ATGGTGGTTATTCTTTGTGA (sugars l1 d17 l2, PS) ?
Return: no

---

Target: APOL1
Details: ASO, A431, 0.25 µM
After the bases stand the sugars from the 5' end (letter, count) and the backbone: PS all phosphorothioate, else s phosphorothioate and o phosphodiester by linkage. Methylation of C is not given here. e = 2'-O-(2-methoxyethyl) (MOE); k = constrained ethyl (cEt); d = 2'-deoxy (DNA)
reportedProperty: target mRNA inhibition (%)
Expressed in %, but write only the number.

The cases that follow already have their target mRNA inhibition on record.
* CTTTAAACTCAGGTGA (sugars k2 d4 e3 k2 d5, PS) | 61
* CCTTAATGTAAATTCC (sugars k4 d9 k3, PS) | 61
* CGTCAATATATTCTTT (sugars kddddkekekeddddd, PS) | 78
* CACTTTACATGCACGA (sugars k4 d9 k3, PS) | 65
* GTTATGAAATTATTGG (sugars k3 d4 k3 e1 d5, PS) | 85

Enquiry: Can you share its target mRNA inhibition? I mean this sequence: CACCTGTTCACCGCTT (sugars k4 d9 k3, PS)
Return: 67

Enquiry: And what about the sequence ATTCTGTGTGCTCACT (sugars k4 d9 k3, PS) ?
Return: 80

---

Target: KRAS
Conditions: ASO, A431, 2 µM
After the bases stand the sugars from the 5' end (letter, count) and the backbone: PS all phosphorothioate, else s phosphorothioate and o phosphodiester by linkage. Methylation of C is not given here. e = 2'-O-(2-methoxyethyl) (MOE); k = constrained ethyl (cEt); d = 2'-deoxy (DNA)
reportedProperty: target mRNA inhibition
Note: state the figure and append the unit.

The cases that follow already have their target mRNA inhibition on record.
* GGCAAGATGACACTAA (sugars k3 d10 k3, PS) | 30%
* TAATGTCACAAGCAGA (sugars k3 d10 k3, PS) | 52%
* CAGTGTTAAGAGAACT (sugars kdddddddddkekeke, PS) | 40%
* TCAAAGTTCACATAAA (sugars k3 d10 k3, PS) | 19%
* CATTTCTGATGTGACT (sugars k3 d10 k3, PS) | 32%

Enquiry: Can you share its target mRNA inhibition? I mean this sequence: ATTACTTTTTGACAAA (sugars k3 d10 k3, PS)
Return: 0%

Enquiry: And what about the sequence ATCCATTTATGTGACT (sugars k3 d10 k3, PS) ?
Return: 38%

Enquiry: And what about the sequence GGTAAAAGCTAACAGT (sugars k3 d10 k3, PS) ?
Return: 49%

Enquiry: And what about the sequence AAAAGCTATTAGGAGT (sugars k3 d10 k3, PS) ?
Return: 25%

Enquiry: And what about the sequence GTCCAGTGATACTTTC (sugars kddddddddddkekek, PS) ?
Return: 36%

Enquiry: And what about the sequence GGGAATTACAAGTATT (sugars k3 d10 k3, PS) ?
Return: 28%

---

Target: DGAT2
Settings: ASO, HepG2, 0.12 µM
After the bases stand the sugars from the 5' end (letter, count) and the backbone: PS all phosphorothioate, else s phosphorothioate and o phosphodiester by linkage. Methylation of C is not given here. e = 2'-O-(2-methoxyethyl) (MOE); d = 2'-deoxy (DNA)
reportedProperty: target mRNA inhibition (%)
Expressed in %, but write only the number.

The cases that follow already have their target mRNA inhibition on record.
• CTGGACAAGTCCTGCCCATC (sugars e5 d10 e5, PS) = 77
• GAGTCTGTGCTGCATCCATG (sugars e5 d10 e5, PS) = 48
• CAGTGCCTACAGCAGAGGGA (sugars e5 d10 e5, PS) = 0

Enquiry: What reported target mRNA inhibition corresponds to CTGGATGGGAAAGTAGTCTC (sugars e5 d10 e5, PS) on DGAT2?
Return: 38

Enquiry: And what about the sequence TAGCCTGGCTTTGATAACCC (sugars e5 d10 e5, PS) ?
Return: 42

Enquiry: And what about the sequence GCAGGACCCCGGAGTAGGCG (sugars e3 d14 e3, PS) ?
Return: 70

Enquiry: And what about the sequence CTGGACAAGTCCTGCCCATC (sugars e2 d13 e5, PS) ?
Return: 58

Enquiry: And what about the sequence AAATAACCCACAGACACCCA (sugars e5 d10 e5, PS) ?
Return: 10

Enquiry: And what about the sequence CCTGGACAAGTCCTGCCCAT (sugars e2 d13 e5, PS) ?
Return: 59

Enquiry: And what about the sequence CAGTGGGCCCCAGGTGGCTC (sugars e5 d10 e5, PS) ?
Return: 46

Enquiry: And what about the sequence GAGTAGGCGGCTATGAGGGT (sugars e5 d10 e5, PS) ?
Return: 11

---

Molecular target: DGAT2
Conditions: ASO, HepG2, 2.5 µM
After the bases stand the sugars from the 5' end (letter, count) and the backbone: PS all phosphorothioate, else s phosphorothioate and o phosphodiester by linkage. Methylation of C is not given here. e = 2'-O-(2-methoxyethyl) (MOE); d = 2'-deoxy (DNA)
reportedProperty: target mRNA inhibition (%)
Expressed in %, but write only the number.

* TGTCCTAGTGCCCCAGGGAG (sugars e5 d10 e5, PS) | 48

Enquiry: Can you share its target mRNA inhibition? I mean this sequence: CTGTGCTCTGTGGGCTCCTC (sugars e5 d10 e5, PS)
Return: 57

Enquiry: And what about the sequence GCCTTGGGAAGTCTCTCATA (sugars e5 d10 e5, PS) ?
Return: 0

---

Molecular target: APOL1
Conditions: ASO, A431, 1 µM
After the bases stand the sugars from the 5' end (letter, count) and the backbone: PS all phosphorothioate, else s phosphorothioate and o phosphodiester by linkage. Methylation of C is not given here. e = 2'-O-(2-methoxyethyl) (MOE); k = constrained ethyl (cEt); d = 2'-deoxy (DNA)
reportedProperty: target mRNA inhibition

• CCTTAATGTAAATTCC (sugars k4 d9 k3, PS) = 80%
• GGGTCAAAAGCGATGG (sugars k4 d9 k3, PS) = 88%
• TGAGTATTGTTTTTGT (sugars k3 d4 k3 e1 d5, PS) = 94%
• CGTCAATATATTCTTT (sugars k3 d5 k3 d5, PS) = 93%
• GCGATTGTCTTGTTTT (sugars k4 d9 k3, PS) = 93%
• TGAGTATTGTTTTTGT (sugars kkkddddkekeddddd, PS) = 90%
• CACCTGTTCACCGCTT (sugars k4 d9 k3, PS) = 87%
• GAGTATTGTTTTTGTG (sugars k2 d4 e3 k2 d5, PS) = 96%
• GTATTTCTTGATGTGG (sugars kkddddekekeddddd, PS) = 96%
• GAATTATGGAATTGCA (sugars kkdddddkekeddddd, PS) = 86%

Continue with the next sequence.
Enquiry: Can you share its target mRNA inhibition? I mean this sequence: GATGGGTACTTCTGTT (sugars k4 d9 k3, PS)
Return: 90%
